Tested system: Ubiquitin carboxyl-terminal hydrolase 30 (Homo sapiens) (UniProt Q70CQ3)
Sequence (Q70CQ3 whole entry, looked up): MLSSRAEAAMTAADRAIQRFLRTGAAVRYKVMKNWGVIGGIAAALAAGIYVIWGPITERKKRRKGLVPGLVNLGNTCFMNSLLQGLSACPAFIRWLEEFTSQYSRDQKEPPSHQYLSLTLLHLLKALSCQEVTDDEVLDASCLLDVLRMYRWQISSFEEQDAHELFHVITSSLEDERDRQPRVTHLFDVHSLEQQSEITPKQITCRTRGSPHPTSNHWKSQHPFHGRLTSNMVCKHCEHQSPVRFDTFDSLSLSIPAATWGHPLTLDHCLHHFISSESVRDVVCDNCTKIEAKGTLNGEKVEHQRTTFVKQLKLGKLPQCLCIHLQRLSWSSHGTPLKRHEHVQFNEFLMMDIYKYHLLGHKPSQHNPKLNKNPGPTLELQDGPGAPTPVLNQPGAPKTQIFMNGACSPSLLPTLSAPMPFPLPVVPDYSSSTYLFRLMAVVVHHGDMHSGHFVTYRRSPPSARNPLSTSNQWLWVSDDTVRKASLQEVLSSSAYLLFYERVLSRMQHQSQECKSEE
Protocol: inhibitors of ubiquitin-specific protease 30 deubiquitylating enzyme, concentration dependence, in vitro biochemical, validation of primary hits (AID 1645865)
Test settings: purified USP30, Ub-rhodamine cleavage, fluorescence, 2 h
Activity calls are given as the source filed them.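 The calls were made as follows: active = maximal inhibition of the USP30 enzyme reaching 30% or more across the dose series; inactive = the rest.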
Provide the reported IC50 of each item.

compound O=C(NCCc1ccccc1)c1nnn(Cc2cccc(Cl)c2)c1-n1cccc1 , IC50 observed: > 50 µM (inactive)

compound COCCNC(=O)c1ccc(-c2ccc(N3CCCCC3)nc2)cc1 , IC50 observed: 22.9 µM

compound O=C(Cn1c(CSc2ccccc2)nc2ccccc21)Nc1ccccc1F , IC50 observed: > 50 µM (inactive)

compound CCC(=O)Nc1nc2cc(NC(=O)Nc3cc(C)cc(C)c3)ccc2s1 , IC50 observed: 1.65 µM

compound Cc1cc(-n2c(C)cc(-c3csc(N)n3)c2C)no1 , IC50 observed: > 50 µM (inactive)

compound CC(=O)Nc1cccc(NC(=O)COc2cccc3ccc(N4CCCC4)nc23)c1 , IC50 observed: > 50 µM (inactive)

====

Tested system: Ubiquitin carboxyl-terminal hydrolase 30 (Homo sapiens)
Protocol: inhibitors of ubiquitin-specific protease 30 deubiquitylating enzyme, concentration dependence, in vitro biochemical, validation of primary hits (AID 1645865)
Test settings: purified USP30, Ub-rhodamine cleavage, fluorescence, 2 h
Activity calls are given as the source filed them.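 The calls were made as follows: active = maximal inhibition of the USP30 enzyme reaching 30% or more across the dose series; inactive = the rest.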
Provide the reported IC50 of each item.

compound CCC(C)(C)C1CCC2(CC1)N=C(N)Nc1nc3ccccc3n12 (stereo not given) , IC50 observed: 28.6 µM

compound COc1ccc(Nc2nc(C(=O)NCc3ccccc3)cc3occc23)cc1 , IC50 observed: > 50 µM (inactive)

compound CC1=CN2C(=N)/C(=C/c3cn(Cc4ccc(Cl)cc4)c4ccccc34)C(=O)N=C2S1 , IC50 observed: > 50 µM (inactive)

compound Cc1ccc(-c2nc(Cn3cnc4ccccc4c3=O)cs2)cc1 , IC50 observed: 4.83 µM

compound O=[N+]([O-])c1ccc2c(c1)nc1n2CCN(Cc2ccco2)C1 , IC50 observed: > 50 µM (inactive)

compound CC(C)(C)C(=O)C1C2C(=O)N(Cc3ccccc3)C(=O)C2C2c3ccccc3C=CN12 (stereo not given) , IC50 observed: > 50 µM (inactive)

compound Cc1cc(C)c2c(-n3cccc3)c(C(=O)NCCc3ccc(S(N)(=O)=O)cc3)sc2n1 , IC50 observed: > 50 µM (inactive)

compound COc1cc(NC(=O)c2cc(CN3CCOCC3)on2)cc(OC)c1 , IC50 observed: > 50 µM (inactive)

compound CC(=O)C1=C(O)[C@]2(O)C(=O)c3c(c(C)c4ccc(C)c(O)c4c3O)C[C@H]2[C@@H](N)C1=O , IC50 observed: 4.68 µM

compound COc1c(O)c(O)c2c(=O)cc(-c3ccc(O)cc3)oc2c1OC , IC50 observed: > 50 µM (inactive)

====

Tested system: Ubiquitin carboxyl-terminal hydrolase 30 (Homo sapiens) (UniProt Q70CQ3)
Protocol: inhibitors of ubiquitin-specific protease 30 deubiquitylating enzyme, concentration dependence, in vitro biochemical, validation of primary hits (AID 1645865)
Test settings: purified USP30, Ub-rhodamine cleavage, fluorescence, 2 h
The source made the active and inactive calls.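 Rule for the calls: active = maximal inhibition of the USP30 enzyme reaching 30% or more across the dose series; inactive = the rest.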
Your response should consist of one outcome taken from YES for active, NO for inactive

Identify the outcome logged in this assay for the molecule shown: CC(C(=O)NCCc1ccccc1)n1nc(-c2ccccc2)c2cc(Cl)ccc21 (centres undefined)
YES

Identify the outcome logged in this assay for the molecule shown: O=C(NCc1ccc2c(c1)OCO2)c1cc2c(s1)-c1ccccc1OC2
YES

Identify the outcome logged in this assay for the molecule shown: CCc1c(Cl)c(O)c(Cl)c(O)c1C(=O)O[C@H]1C(C)O[C@@H](OC/C2=C\C=C\CC(O)/C(C)=C/C(CC)C(O[C@@H]3OC(C)(C)[C@H](O)C(OC(=O)C(C)C)[C@@H]3O)/C(C)=C/C(C)=C/CC(C(C)O)OC2=O)[C@@H](OC)C1O (some centres undefined)
NO

Identify the outcome logged in this assay for the molecule shown: O=S(=O)(Cc1nnc(-c2ccccc2C(F)(F)F)o1)c1ccc(Cl)cc1
NO

Identify the outcome logged in this assay for the molecule shown: CC1CCN(C(=O)c2cn(-c3cc(N4CCC(C)CC4)ncn3)cn2)CC1
NO

Identify the outcome logged in this assay for the molecule shown: Cc1cccc(NC(=O)CSc2ccc(-n3cnc(-c4ccccc4)c3)nn2)c1
YES

Identify the outcome logged in this assay for the molecule shown: O=C(CC1C(=O)Nc2nc(-c3ccccc3)nn21)Nc1cccc2ccccc12 (centres undefined)
YES

Identify the outcome logged in this assay for the molecule shown: CC(C)NC(=O)Cn1ccn2nc(-c3ccc(Cl)cc3)cc2c1=O
YES

Identify the outcome logged in this assay for the molecule shown: O=c1ncn(Cc2ccc3c(c2)OCO3)cc1-c1ncc(C(F)(F)F)cc1Cl
YES

These entries and their values trace back to PubChem BioAssay AID1645865.
